Tested on: primary human fibroblasts derived from IPF patients (LL29 cells), α-smooth muscle actin (αSMA)
Test: Inhibition of the fibrotic process: TGF-β1-treated primary human fibroblasts from IPF patients, αSMA staining
Format: cell-based
Settings: Fibroblast, 96 h, LL29 fibroblasts from IPF patients, TGF-β1 20 ng/mL, 4 days, inhibition of fibrotic process
pEC50: −log10 of the molar value.
Listed here: items and their measured pEC50.
measured-endpoint: pEC50

- Cn1cc(-c2ccc3[nH]nc(-c4nc5c(-c6cccs6)ccnc5[nH]4)c3n2)cn1: 6.36
- CN(C)Cc1cncc(-c2ccc3[nH]nc(-c4nc5c(-c6cccc(F)c6)ccnc5[nH]4)c3n2)c1: 5.84
- c1cc(-c2ccoc2)c2nc(-c3n[nH]c4ccc(-c5cncc(CNCC6CCCC6)c5)nc34)[nH]c2n1: 5.85
- CN(C)CCNc1cc(F)cc(-c2ccnc3[nH]c(-c4n[nH]c5ccc(-c6ccccn6)nc45)nc23)c1: 5.36

----------
Test system: primary human fibroblasts derived from IPF patients (LL29 cells), α-smooth muscle actin (αSMA)
Assay: Inhibition of the fibrotic process: TGF-β1-treated primary human fibroblasts from IPF patients, αSMA staining
Format: cell-based
Details: Fibroblast, 96 h, LL29 fibroblasts from IPF patients, TGF-β1 20 ng/mL, 4 days, inhibition of fibrotic process
pEC50: −log10 of the molar value.
Please mark Y if the recorded pEC50 is equal to or greater than 6, and N if it falls below.

• O=C(CC1CCNCC1)Nc1cncc(-c2ccc3[nH]nc(-c4nc5c(-c6ccsc6)ccnc5[nH]4)c3n2)c1 = N
• c1cncc(-c2ccc3[nH]nc(-c4nc5cccnc5[nH]4)c3n2)c1 = N
• CC(C)(C)C(=O)Nc1cncc(-c2ccc3[nH]nc(-c4nc5c(-c6ccc(F)cc6)ccnc5[nH]4)c3n2)c1 = N
• CC(C)(C)CC(=O)Nc1cncc(-c2ccc3[nH]nc(-c4nc5c(-c6ccccc6F)ccnc5[nH]4)c3n2)c1 = N
• CCCCC(=O)Nc1cncc(-c2ccc3[nH]nc(-c4nc5c(-c6ccoc6)ccnc5[nH]4)c3n2)c1 = Y
• CN(C)CCNc1cc(F)cc(-c2ccnc3[nH]c(-c4n[nH]c5ccc(-c6cnccn6)nc45)nc23)c1 = N
• CN(C)CCNc1cc(F)cc(-c2ccnc3[nH]c(-c4n[nH]c5ccc(-c6cncc(OCCN7CCCC7)c6)nc45)nc23)c1 = N
• Fc1ccccc1-c1ccnc2[nH]c(-c3n[nH]c4ccc(-c5cncc(CNCC6CCCC6)c5)nc34)nc12 = N
• Cn1cc(-c2ccc3[nH]nc(-c4nc5c(-c6ccc7c(c6)OCO7)ccnc5[nH]4)c3n2)c(CO)n1 = Y
• Cc1ncc(-c2ccc3[nH]nc(-c4nc5c(-c6cc(F)cc(NCCN(C)C)c6)ccnc5[nH]4)c3n2)n1C = N
• CCCCC(=O)Nc1cncc(-c2ccc3[nH]nc(-c4nc5c(-c6ccccn6)ccnc5[nH]4)c3n2)c1 = N

----------
Listed here: items and their measured EC50.
System: Wnt activity (Sp5-Luc reporter, SW480 colon carcinoma cells)
Assay: Screening assay for Wnt activity: Sp5-Luc reporter gene assay in SW480 cells
Format: cell-based
Conditions: Homo sapiens, overnight incubation, 10-point dose-response from 10 μM
measured-endpoint: EC50

• COc1cccc(-c2ccnc3[nH]c(-c4n[nH]c5ccc(-c6cncc(NC(=O)Cc7ccccc7)c6)nc45)nc23)c1 = 2.8 µM
• O=C(CC1CCNCC1)Nc1cncc(-c2ccc3[nH]nc(-c4nc5c(-c6ccsc6)ccnc5[nH]4)c3n2)c1 = > 10 µM
• CCC(=O)Nc1cncc(-c2ccc3[nH]nc(-c4nc5c(-c6cccc(F)c6)ccnc5[nH]4)c3n2)c1 = > 10 µM
• CS(=O)(=O)NCc1cc(F)cc(-c2ccnc3[nH]c(-c4n[nH]c5ccc(-c6cncc(NC(=O)CC7CCNCC7)c6)nc45)nc23)c1 = > 10 µM
• CCCCC(=O)Nc1cncc(-c2ccc3[nH]nc(-c4nc5c(-c6ccoc6)ccnc5[nH]4)c3n2)c1 = 0.803 µM
• CC(C)(C)C(=O)Nc1cncc(-c2ccc3[nH]nc(-c4nc5c(-c6ccc(F)cc6)ccnc5[nH]4)c3n2)c1 = > 10 µM
• c1cncc(-c2ccnc3[nH]c(-c4n[nH]c5ccc(-c6cncc(OC7CCCCC7)c6)nc45)nc23)c1 = > 10 µM
• O=C(Cc1ccccc1)Nc1cncc(-c2ccc3[nH]nc(-c4nc5cccnc5[nH]4)c3n2)c1 = > 10 µM
• CN(C)CC(=O)Nc1cncc(-c2ccc3[nH]nc(-c4nc5c(-c6cccc(F)c6)ccnc5[nH]4)c3n2)c1 = 4.36 µM
• CN(C)c1cncc(-c2ccc3[nH]nc(-c4nc5c(N6CCCCC6)ccnc5[nH]4)c3n2)c1 = > 10 µM
• CC(C)Nc1cncc(-c2ccc3[nH]nc(-c4nc5c(-c6cccnc6)ccnc5[nH]4)c3n2)c1 = 1.96 µM
• O=C(Nc1cncc(-c2ccc3[nH]nc(-c4nc5c(-c6ccccc6F)ccnc5[nH]4)c3n2)c1)C1CCCC1 = > 10 µM
• c1cncc(-c2ccc3[nH]nc(-c4nc5cccnc5[nH]4)c3n2)c1 = > 10 µM
• C1=C(c2ccc3[nH]nc(-c4nc5c(-c6ccc7c(c6)OCO7)ccnc5[nH]4)c3n2)CCNC1 = > 10 µM

----------
Tested on: primary human mesenchymal stem cells (hMSCs)
Assay: Induction of chondrogenesis in primary human mesenchymal stem cells (nodule imaging, Rhodamine B/Nile Red)
Assay type: cell-based
Settings: hMSC chondrogenesis, TGF-β3 as positive control, read-out: Max. Activity as % TGF-β3 activity
Listed here: items and their measured Emax.
measured-endpoint: Emax (%)

• CC(C)C(=O)Nc1cncc(-c2ccc3[nH]nc(-c4nc5c(-c6ccccc6F)ccnc5[nH]4)c3n2)c1 = 197
• CCNCc1cncc(-c2ccc3[nH]nc(-c4nc5c(-c6ccccn6)ccnc5[nH]4)c3n2)c1 = 28
• Cc1ccncc1-c1ccc2[nH]nc(-c3nc4c(-c5cc(F)cc(CNS(C)(=O)=O)c5)ccnc4[nH]3)c2n1 = 47
• CN(C)c1cncc(-c2ccc3[nH]nc(-c4nc5c(N6CCCCC6)ccnc5[nH]4)c3n2)c1 = 42
• Fc1cccc(-c2ccnc3[nH]c(-c4n[nH]c5ccc(-c6cncc(CN7CCC(F)(F)C7)c6)nc45)nc23)c1 = 247
• Cc1ccc(-c2ccnc3[nH]c(-c4n[nH]c5ccc(-c6cncc(N)c6)nc45)nc23)s1 = 118
• CCCC(=O)Nc1cncc(-c2ccc3[nH]nc(-c4nc5c(-c6ccsc6)ccnc5[nH]4)c3n2)c1 = 40

----------
Listed here: items and their measured EC50.
Test system: IL-6 (THP-1 cells)
Assay: Inhibition of IL-6 in LPS-stimulated THP-1 monocytes (HTRF)
Assay type: cell-based
Conditions: Homo sapiens, LPS 500 ng/mL, IL-6 by HTRF
measured-endpoint: EC50 (nM)

- Fc1cccc(-c2ccnc3[nH]c(-c4n[nH]c5ccc(C6CCNCC6)nc45)nc23)c1: 3480
- Cc1ncc(-c2ccc3[nH]nc(-c4nc5c(-c6cc(F)cc(NCCN(C)C)c6)ccnc5[nH]4)c3n2)n1C: 638
- Cc1cn(-c2ccnc3[nH]c(-c4n[nH]c5ccc(C6=CCNCC6)nc45)nc23)cn1: 1550
- CC(C)Nc1cncc(-c2ccc3[nH]nc(-c4nc5c(-c6ccoc6)ccnc5[nH]4)c3n2)c1: 456

----------
System: IL-6 (THP-1 cells)
Test: Inhibition of IL-6 in LPS-stimulated THP-1 monocytes (HTRF)
Type: cell-based
Settings: Homo sapiens, LPS 500 ng/mL, IL-6 by HTRF
pEC50: −log10 of the molar value.
Listed here: items and their measured pEC50.
measured-endpoint: pEC50

• CN(C)Cc1cncc(-c2ccc3[nH]nc(-c4nc5c(-c6cccc(F)c6)ccnc5[nH]4)c3n2)c1 = 5.23
• CN(C)c1cncc(-c2ccc3[nH]nc(-c4nc5c(-c6cccs6)ccnc5[nH]4)c3n2)c1 = 8.40

----------
Listed here: items and their measured pEC50.
Test system: primary human fibroblasts derived from IPF patients (LL29 cells), α-smooth muscle actin (αSMA)
Assay: Inhibition of the fibrotic process: TGF-β1-treated primary human fibroblasts from IPF patients, αSMA staining
Assay type: cell-based
Conditions: Fibroblast, 96 h, LL29 fibroblasts from IPF patients, TGF-β1 20 ng/mL, 4 days, inhibition of fibrotic process
pEC50: −log10 of the molar value.
measured-endpoint: pEC50

* Cc1cn(-c2ccnc3[nH]c(-c4n[nH]c5ccc(-c6cncc(NC(=O)C7CCC7)c6)nc45)nc23)cn1 [Compound 217] | 5.21
* Oc1cncc(-c2ccc3[nH]nc(-c4nc5c(-c6cccc(F)c6)ccnc5[nH]4)c3n2)c1 [Compound 517] | 5.94
* Cc1cn(-c2ccnc3[nH]c(-c4n[nH]c5ccc(-c6cncc(CN7CCCC7)c6)nc45)nc23)cn1 [Compound 210] | 5.17
* CC(C)(C)C(=O)Nc1cncc(-c2ccc3[nH]nc(-c4nc5c(-c6ccc(Cl)s6)ccnc5[nH]4)c3n2)c1 [Compound 1043] | 6.38
* Fc1cccc(-c2ccnc3[nH]c(-c4n[nH]c5ccc(-c6cncc(OC7CCNCC7)c6)nc45)nc23)c1 [Compound 512] | 5.78
* CN(C)c1cncc(-c2ccc3[nH]nc(-c4nc5c(-c6cccc(F)c6)ccnc5[nH]4)c3n2)c1 [Compound 7] | 5.66
* CC(C)Nc1cncc(-c2ccc3[nH]nc(-c4nc5c(-c6ccoc6)ccnc5[nH]4)c3n2)c1 [Compound 320] | 6.56
* Fc1ccc(-c2ccnc3[nH]c(-c4n[nH]c5ccc(-c6cncc(CN7CCCC7)c6)nc45)nc23)cc1 [Compound 42] | 5.73
* Cc1ccc(-c2ccnc3[nH]c(-c4n[nH]c5ccc(-c6cncc(NC(=O)C(C)C)c6)nc45)nc23)s1 [Compound 401] | 6.80
* CC(C)CC(=O)Nc1cncc(-c2ccc3[nH]nc(-c4nc5c(-c6ccc(Cl)s6)ccnc5[nH]4)c3n2)c1 [Compound 1037] | 6.29
* Cc1ccc(-c2ccnc3[nH]c(-c4n[nH]c5ccc(-c6cncc(N)c6)nc45)nc23)s1 [Compound 395] | 7.01
* Fc1cccc(-c2ccnc3[nH]c(-c4n[nH]c5ccc(-c6cnccn6)nc45)nc23)c1 [Compound 520] | 5.27
* c1ccc(CNCc2cncc(-c3ccc4[nH]nc(-c5nc6c(-c7ccsc7)ccnc6[nH]5)c4n3)c2)cc1 [Compound 304] | 5.87
* CN(C)CCNc1cc(F)cc(-c2ccnc3[nH]c(-c4n[nH]c5ccc(-c6cncc(OCc7ccccc7)c6)nc45)nc23)c1 [Compound 790] | 5.60
* CN1CCN(c2ccnc3[nH]c(-c4n[nH]c5ccc(-c6cncc(OCc7ccccc7)c6)nc45)nc23)CC1 [Compound 646] | 5.77
